Origin of the recorded values: paper PMC10247784

Test Target: human TAS2R4 (Homo sapiens)
Construct: expressed in transfected cells; host or cells: HEK293T-Gα16gust44
Sequence (Q9NYW5 whole entry): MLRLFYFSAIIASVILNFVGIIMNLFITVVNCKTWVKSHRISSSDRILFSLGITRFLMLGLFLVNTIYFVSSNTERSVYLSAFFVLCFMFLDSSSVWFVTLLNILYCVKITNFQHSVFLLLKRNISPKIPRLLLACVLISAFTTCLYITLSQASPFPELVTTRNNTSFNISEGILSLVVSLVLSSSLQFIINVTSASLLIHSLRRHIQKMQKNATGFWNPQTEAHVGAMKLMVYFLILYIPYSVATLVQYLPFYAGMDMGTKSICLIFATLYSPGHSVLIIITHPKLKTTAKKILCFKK
Procedure Summary: Calcium imaging assay (FLIPR), HEK293T-Gα16gust44 cells transfected with human TAS2R4; note: test concentration or dose not given here
Type: cell-based
Run Parameters: Time (s) 76.781 (TCA, TLCA: 76.782)
Protocol: This set of bile acids was chosen because of their commercial availability in high purities, their diversity within the class of bile acids and their previous detection and quantitation in human blood. Stock solutions were prepared in DMSO. […] Measured data were negative control corrected by subtracting the signal of the mock-transfected cells and exported to Microsoft Excel using the FLIPR software ScreenWorks 4.2. […]
Outcome Measure: RLU, fluorescence trace (RLU)
Answer format: numeric, RLU implied, no suffix.

*Q* # RLU, fluorescence trace lookup, item `C[C@H](CCC(=O)O)[C@H]1CC[C@H]2[C@@H]3[C@H](O)C[C@@H]4C[C@H](O)CC[C@]4(C)[C@H]3C[C@H](O)[C@]12C`
*A* 685.082

*Q* # RLU, fluorescence trace lookup, item `C[C@H](CCC(=O)NCCS(=O)(=O)O)[C@H]1CC[C@H]2[C@@H]3CC[C@@H]4C[C@H](O)CC[C@]4(C)[C@H]3CC[C@]12C`
*A* 292.885

*Q* # RLU, fluorescence trace lookup, item `C[C@H](CCC(=O)O)[C@H]1CC[C@H]2[C@@H]3[C@@H](O)C[C@@H]4C[C@H](O)CC[C@]4(C)[C@H]3CC[C@]12C`
*A* 368.083

* * *

Test Target: mouse Tas2r108 (Mus musculus, UniProt Q9JKT3)
Construct: expressed in transfected cells; host or cells: HEK293T-Gα16gust44
Sequence (Q9JKT3 1-297): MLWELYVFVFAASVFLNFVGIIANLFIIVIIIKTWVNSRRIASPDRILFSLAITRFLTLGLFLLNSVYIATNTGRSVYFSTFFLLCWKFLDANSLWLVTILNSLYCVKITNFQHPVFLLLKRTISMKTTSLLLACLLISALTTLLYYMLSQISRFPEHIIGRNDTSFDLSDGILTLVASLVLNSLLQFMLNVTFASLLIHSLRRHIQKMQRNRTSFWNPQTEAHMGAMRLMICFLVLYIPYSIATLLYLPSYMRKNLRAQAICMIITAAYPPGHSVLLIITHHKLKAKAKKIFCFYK
Procedure Summary: Calcium imaging assay (FLIPR), HEK293T-Gα16gust44 cells transfected with mouse Tas2r108
Assay type: cell-based
Run Parameters: Time 4 s
Outcome Measure: RLU (RLU)
Answer format: numeric, RLU implied, no suffix.

*Q* # RLU lookup, item `C[C@H](CCC(=O)NCCS(=O)(=O)O)[C@H]1CC[C@H]2[C@@H]3CC[C@@H]4C[C@H](O)CC[C@]4(C)[C@H]3CC[C@]12C`
*A* -5.736

*Q* # RLU lookup, item `C[C@H](CCC(=O)NCC(=O)O)[C@H]1CC[C@H]2[C@@H]3[C@H](O)C[C@@H]4C[C@H](O)CC[C@]4(C)[C@H]3C[C@H](O)[C@]12C`
*A* 11.6885

*Q* # RLU lookup, item `C[C@H](CCC(=O)NCCS(=O)(=O)O)[C@H]1CC[C@H]2[C@@H]3[C@H](O)C[C@@H]4C[C@H](O)CC[C@]4(C)[C@H]3C[C@H](O)[C@]12C`
*A* -40.462

*Q* # RLU lookup, item `C[C@H](CCC(=O)O)[C@H]1CC[C@H]2[C@@H]3[C@H](O)C[C@@H]4C[C@H](O)CC[C@]4(C)[C@H]3C[C@H](O)[C@]12C`
*A* 8.7879

*Q* # RLU lookup, item `C[C@H](CCC(=O)O)[C@H]1CC[C@H]2[C@@H]3CC[C@@H]4C[C@H](O)CC[C@]4(C)[C@H]3C[C@H](O)[C@]12C`
*A* 7.695
